These entries and their values trace back to patent US20100135997A1.

Tgt: T1, HLA-A*0201 loaded with the Carcinoembryonic antigen (CEA)-derived … peptide (biotin on the C-terminal biotinylation tag)
T1 construct: Soluble, biotinylated, immobilised on a streptavidin chip
Method summary: Biacore SPR
Item-by-item account of koff

Binder	koff
SEQ ID NO 74 (receptor, mutated soluble two domain ILT-2) MGHLPKPTLWAEPGSVITQGSPVTLRCQGGQETQEYRLYREKKTAPWITRIPQELVKKGQFPIPSITWEHAGRYRCYYGSDTSQWSASSDPLELVVTGVYIKPTLSAQPSPVVNSGGNVTLQCDSQVAFDGFILCKEGEDEHPQCLNSQPHARGSSRAIFSVGPVSPSRRWWYRCYAYDSNSPYEWSLPSDLLELLVL	≤ 2 s⁻¹
SEQ ID NO 38 (receptor, mutated soluble two domain ILT-2) MAGHLPKPTLWAEPGSVITQGSPVTLRCQGGQETQEYRLYREKKTAPWITRIPQELVKKGQFPIPSITWEHAGRYRCYYGSDTSQWSASSDPLELVVTGVYIKPTLSAQPSPVVNSGGNVTLQCDSQVAFDGFILCKEGEDEHPQCLNSQPHARGSSRAIFSVGPVSPSRRWWYRCYAYMSWAPYEWSLPSDLLELDVDG	≤ 2 s⁻¹
